The measured values listed here are drawn from the NIST ThermoML archive (doi:10.1016/j.jct.2013.01.012).

Assay: mn = molality of the nth substance listed, in mol/kg
Conditions: 308.15 K; 101 kPa; Liquid; Vibrating tube method; m1 = 0.9
MEASURED PARAMETER: mass density (kg/m3)
Reply numerically in kg/m3, unit not repeated.

## Input Please look up its mass density: O=P([O-])([O-])[O-].[Na+].[Na+].[Na+] [trisodium phosphate] + O
## Output 1167.45

## Input Please look up its mass density: O=P([O-])(O)O.[K+] [monopotassium phosphate] + O
## Output 1086.5

## Input Please look up its mass density: O=P([O-])([O-])O.[Na+].[Na+] [disodium hydrogen phosphate] + O
## Output 1162.21

## Input Please look up its mass density: O=P([O-])(O)O.[Li+] [lithium dihydrogen phosphate] + O
## Output 1055.48

## Input Please look up its mass density: O=P([O-])([O-])[O-].[K+].[K+].[K+] [tripotassium phosphate] + O
## Output 1190.09

New cases:
## Input Please look up its mass density: O=P(O)(O)O [phosphoric acid] + O
## Output 1037.8

## Input Please look up its mass density: O=P([O-])([O-])O.[K+].[K+] [dipotassium hydrogen phosphate] + O
## Output 1134.44

## Input Please look up its mass density: O=P([O-])(O)O.[Na+] [sodium dihydrogen phosphate] + O
## Output 1080.28

* * *

Documented mass density across a set of compounds
Assay: mn = molality of the nth substance listed, in mol/kg
Details: 308.15 K; 101 kPa; Liquid; Vibrating tube method; m1 = 0.1
Reply numerically in kg/m3, unit not repeated.

## Input Please look up its mass density: O=P([O-])(O)O.[K+] [monopotassium phosphate] + O
## Output 1004.16

## Input Please look up its mass density: O=P([O-])([O-])[O-].[K+].[K+].[K+] [tripotassium phosphate] + O
## Output 1013.92

## Input Please look up its mass density: O=P([O-])([O-])[O-].[Na+].[Na+].[Na+] [trisodium phosphate] + O
## Output 1012.26

## Input Please look up its mass density: O=P(O)(O)O [phosphoric acid] + O
## Output 998.962

## Input Please look up its mass density: O=P([O-])(O)O.[Li+] [lithium dihydrogen phosphate] + O
## Output 1001.59

## Input Please look up its mass density: O=P([O-])([O-])O.[Na+].[Na+] [disodium hydrogen phosphate] + O
## Output 1008.19

## Input Please look up its mass density: O=P([O-])(O)O.[Na+] [sodium dihydrogen phosphate] + O
## Output 1004.2

## Input Please look up its mass density: O=P([O-])([O-])O.[K+].[K+] [dipotassium hydrogen phosphate] + O
## Output 1014.18

* * *

Assay: mn = molality of the nth substance listed, in mol/kg
Details: 308.15 K; 101 kPa; Liquid; Sing-around technique in a fixed-path interferometer; m1 = 0.7
Documented speed of sound across a set of compounds
Reply numerically in m/s, unit not repeated.

## Input Please look up its speed of sound: O=P([O-])([O-])O.[K+].[K+] [dipotassium hydrogen phosphate] + O
## Output 1626

New cases:
## Input Please look up its speed of sound: O=P([O-])([O-])[O-].[Na+].[Na+].[Na+] [trisodium phosphate] + O
## Output 1677.7

## Input Please look up its speed of sound: O=P([O-])(O)O.[Na+] [sodium dihydrogen phosphate] + O
## Output 1587.9

## Input Please look up its speed of sound: O=P([O-])(O)O.[K+] [monopotassium phosphate] + O
## Output 1580

* * *

Documented mass density across a set of molecules
Assay: mn = molality of the nth substance listed, in mol/kg
Details: 308.15 K; 101 kPa; Liquid; Vibrating tube method; m1 = 0.7
Reply numerically in kg/m3, unit not repeated.

## Input Please look up its mass density: O=P([O-])([O-])[O-].[Na+].[Na+].[Na+] [trisodium phosphate] + O
## Output 1131.08

New cases:
## Input Please look up its mass density: O=P([O-])([O-])O.[Na+].[Na+] [disodium hydrogen phosphate] + O
## Output 1099.82

## Input Please look up its mass density: O=P([O-])([O-])O.[K+].[K+] [dipotassium hydrogen phosphate] + O
## Output 1103.01

## Input Please look up its mass density: O=P(O)(O)O [phosphoric acid] + O
## Output 1028.12

## Input Please look up its mass density: O=P([O-])(O)O.[K+] [monopotassium phosphate] + O
## Output 1065.08

## Input Please look up its mass density: O=P([O-])([O-])[O-].[K+].[K+].[K+] [tripotassium phosphate] + O
## Output 1144.26

## Input Please look up its mass density: O=P([O-])(O)O.[Na+] [sodium dihydrogen phosphate] + O
## Output 1060.09

## Input Please look up its mass density: O=P([O-])(O)O.[Li+] [lithium dihydrogen phosphate] + O
## Output 1046.58

* * *

Assay: mn = molality of the nth substance listed, in mol/kg
Conditions: 303.15 K; 101 kPa; Liquid; Vibrating tube method; m1 = 0.5
Documented mass density across a set of compounds
Reply numerically in kg/m3, unit not repeated.

Solved entries (count: 4):
## Input Please look up its mass density: O=P([O-])(O)O.[Na+] [sodium dihydrogen phosphate] + O
## Output 1041.67

## Input Please look up its mass density: O=P([O-])(O)O.[Li+] [lithium dihydrogen phosphate] + O
## Output 1032.57

## Input Please look up its mass density: O=P([O-])(O)O.[K+] [monopotassium phosphate] + O
## Output 1045.29

## Input Please look up its mass density: O=P([O-])([O-])O.[Na+].[Na+] [disodium hydrogen phosphate] + O
## Output 1069.09

New cases:
## Input Please look up its mass density: O=P([O-])([O-])O.[K+].[K+] [dipotassium hydrogen phosphate] + O
## Output 1071.14

## Input Please look up its mass density: O=P(O)(O)O [phosphoric acid] + O
## Output 1019.94

## Input Please look up its mass density: O=P([O-])([O-])[O-].[K+].[K+].[K+] [tripotassium phosphate] + O
## Output 1100.46

## Input Please look up its mass density: O=P([O-])([O-])[O-].[Na+].[Na+].[Na+] [trisodium phosphate] + O
## Output 1090.82

* * *

Assay: refractive index (Na D-line) (dimensionless); mn = molality of the nth substance listed, in mol/kg
Conditions: 298.15 K; 101 kPa; Liquid; Standard Abbe refractometry; m1 = 0.1
Numbers after ± are expanded uncertainties.
MEASURED PARAMETER: refractive index

Solved entries (count: 7):
## Input Please look up its refractive index: O=P([O-])(O)O.[Li+] [lithium dihydrogen phosphate] + O
## Output 1.3342 ± 0.0004

## Input Please look up its refractive index: O=P([O-])(O)O.[K+] [monopotassium phosphate] + O
## Output 1.3343 ± 0.0004

## Input Please look up its refractive index: O=P([O-])([O-])[O-].[Na+].[Na+].[Na+] [trisodium phosphate] + O
## Output 1.3365 ± 0.0004

## Input Please look up its refractive index: O=P([O-])([O-])[O-].[K+].[K+].[K+] [tripotassium phosphate] + O
## Output 1.3365 ± 0.0004

## Input Please look up its refractive index: O=P([O-])([O-])O.[Na+].[Na+] [disodium hydrogen phosphate] + O
## Output 1.3354 ± 0.0004

## Input Please look up its refractive index: O=P([O-])(O)O.[Na+] [sodium dihydrogen phosphate] + O
## Output 1.3346 ± 0.0004

## Input Please look up its refractive index: O=P(O)(O)O [phosphoric acid] + O
## Output 1.3334 ± 0.0004

Moving on to the next molecule.
## Input Please look up its refractive index: O=P([O-])([O-])O.[K+].[K+] [dipotassium hydrogen phosphate] + O
## Output 1.3354 ± 0.0004

* * *

Assay: mn = molality of the nth substance listed, in mol/kg
Settings: 298.15 K; 101 kPa; Liquid; Vibrating tube method; m1 = 0.3
MEASURED PARAMETER: mass density (kg/m3)
Reply numerically in kg/m3, unit not repeated.

## Input Please look up its mass density: O=P([O-])([O-])O.[K+].[K+] [dipotassium hydrogen phosphate] + O
## Output 1041.48

## Input Please look up its mass density: O=P(O)(O)O [phosphoric acid] + O
## Output 1011.37

## Input Please look up its mass density: O=P([O-])(O)O.[Na+] [sodium dihydrogen phosphate] + O
## Output 1024.26

## Input Please look up its mass density: O=P([O-])([O-])O.[Na+].[Na+] [disodium hydrogen phosphate] + O
## Output 1038.69

## Input Please look up its mass density: O=P([O-])(O)O.[Li+] [lithium dihydrogen phosphate] + O
## Output 1018.97
